- targetUnderTest: hWRN(519-1227)_C-H3CV-GFP-10His (Homo sapiens)
- Sequence (Q14191 519-1227): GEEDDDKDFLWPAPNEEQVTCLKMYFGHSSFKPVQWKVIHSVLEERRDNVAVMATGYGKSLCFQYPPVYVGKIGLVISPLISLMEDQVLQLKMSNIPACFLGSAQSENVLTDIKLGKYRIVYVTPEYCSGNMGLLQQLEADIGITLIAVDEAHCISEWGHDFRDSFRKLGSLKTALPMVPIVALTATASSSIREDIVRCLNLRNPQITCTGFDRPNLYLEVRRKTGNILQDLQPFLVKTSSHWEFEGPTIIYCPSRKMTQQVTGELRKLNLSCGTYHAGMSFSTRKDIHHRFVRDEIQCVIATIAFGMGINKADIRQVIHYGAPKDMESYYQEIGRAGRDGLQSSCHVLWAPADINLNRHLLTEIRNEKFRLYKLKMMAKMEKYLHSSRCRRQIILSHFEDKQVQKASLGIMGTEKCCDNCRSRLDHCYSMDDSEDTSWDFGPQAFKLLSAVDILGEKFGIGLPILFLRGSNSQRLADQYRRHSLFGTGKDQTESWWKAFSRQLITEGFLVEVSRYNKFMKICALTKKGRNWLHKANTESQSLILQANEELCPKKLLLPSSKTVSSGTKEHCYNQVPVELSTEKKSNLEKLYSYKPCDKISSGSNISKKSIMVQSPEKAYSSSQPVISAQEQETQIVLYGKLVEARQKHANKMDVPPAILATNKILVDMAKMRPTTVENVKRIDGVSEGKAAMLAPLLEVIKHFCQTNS
- assayDetails: Helicase Assay for WRN Inhibition (ATP-dependent, fluorescence based)
- protocolConditions: WRN Helicase IC50, 30 min preincubation with ATP, 30 min reaction
pIC50: −log10 of the molar value.
Note to self: values exactly at 5 are true (1). So pIC50 at or above 5 is true (1), below is false (0).

The following compounds have reported results that may help.
[
  {
    "compound": "C[C@@H](/C=C/S(C)(=O)=O)NC(=O)c1cnc([C@H]2C[C@@H](C)C2)nc1Oc1ccccc1 (single isomer, unassigned)",
    "targetUnderTest": "hWRN(519-1227)_C-H3CV-GFP-10His (Homo sapiens)",
    "className": "true (1)"
  },
  {
    "compound": "COC1CN(c2ncc(C(=O)N[C@@H](C)/C=C/S(C)(=O)=O)c(Oc3ccccc3)n2)C1",
    "targetUnderTest": "hWRN(519-1227)_C-H3CV-GFP-10His (Homo sapiens)",
    "className": "false (0)"
  },
  {
    "compound": "C[C@@H](/C=C/S(C)(=O)=O)NC(=O)c1cnc(C(C)(C)C)nc1OC1CCCC1",
    "targetUnderTest": "hWRN(519-1227)_C-H3CV-GFP-10His (Homo sapiens)",
    "className": "true (1)"
  },
  {
    "compound": "CS(=O)(=O)/C=C/[C@@H](NC(=O)c1cnc(CC(F)(F)F)nc1Oc1ccccc1)C1CC1",
    "targetUnderTest": "hWRN(519-1227)_C-H3CV-GFP-10His (Homo sapiens)",
    "className": "true (1)"
  },
  {
    "compound": "C[C@@H](/C=C/S(C)(=O)=O)NC(=O)c1cnc(C(C)(C)C)nc1O[C@@H]1C[C@@H]2C[C@@H]2C1",
    "targetUnderTest": "hWRN(519-1227)_C-H3CV-GFP-10His (Homo sapiens)",
    "className": "true (1)"
  }
]

Query: Exam item: decide whether the reported pIC50 for C[C@@H](/C=C/S(C)(=O)=O)NC(=O)c1cnc(C2CC2)nc1OC1CC2(CC2)C1 is at least 5.
Response: false (0)
